# tgt: P2Y purinoceptor 2 (Homo sapiens)
# Sequence (P41231 whole entry): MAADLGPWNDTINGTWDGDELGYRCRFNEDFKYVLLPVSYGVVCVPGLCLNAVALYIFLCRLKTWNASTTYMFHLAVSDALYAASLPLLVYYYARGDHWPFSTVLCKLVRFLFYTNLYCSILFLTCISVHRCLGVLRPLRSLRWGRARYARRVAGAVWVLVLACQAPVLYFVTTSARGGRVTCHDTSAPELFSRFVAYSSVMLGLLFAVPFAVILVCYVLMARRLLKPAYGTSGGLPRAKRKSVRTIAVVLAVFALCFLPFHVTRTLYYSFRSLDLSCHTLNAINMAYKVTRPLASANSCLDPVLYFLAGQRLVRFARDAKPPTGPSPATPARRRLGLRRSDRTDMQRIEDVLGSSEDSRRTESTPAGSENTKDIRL
# procedure_summary: Antagonist activity at N-terminal HA epitope-tagged wild type 3 human P2Y2 receptor expressed in human 1321N1 cells assessed as inhibition of UTP-induced calcium mobilization
# Type: functional, cell-based
Listing of recorded IC50 by entry.
parameter_measured: IC50 (µM)

>>> df
                         chemical_structure  parameter_measured  measure_unit  value_reported
0  COc1ccc(Nc2cc(S(=O)(=O)O)c(N)c3c2C(=O)c2ccccc2C3=O)cc1                IC50            µM            21.9
1  Nc1c(S(=O)(=O)O)cc(Nc2ccc(Nc3nc(Cl)nc(Nc4cccc(S(=O)(=O)O)c4)n3)c(S(=O)(=O)O)c2)c2c1C(=O)c1ccccc1C2=O                IC50            µM            1.62
